Target: Acetylcholinesterase (Electrophorus electricus)
Sequence (O42275 whole entry): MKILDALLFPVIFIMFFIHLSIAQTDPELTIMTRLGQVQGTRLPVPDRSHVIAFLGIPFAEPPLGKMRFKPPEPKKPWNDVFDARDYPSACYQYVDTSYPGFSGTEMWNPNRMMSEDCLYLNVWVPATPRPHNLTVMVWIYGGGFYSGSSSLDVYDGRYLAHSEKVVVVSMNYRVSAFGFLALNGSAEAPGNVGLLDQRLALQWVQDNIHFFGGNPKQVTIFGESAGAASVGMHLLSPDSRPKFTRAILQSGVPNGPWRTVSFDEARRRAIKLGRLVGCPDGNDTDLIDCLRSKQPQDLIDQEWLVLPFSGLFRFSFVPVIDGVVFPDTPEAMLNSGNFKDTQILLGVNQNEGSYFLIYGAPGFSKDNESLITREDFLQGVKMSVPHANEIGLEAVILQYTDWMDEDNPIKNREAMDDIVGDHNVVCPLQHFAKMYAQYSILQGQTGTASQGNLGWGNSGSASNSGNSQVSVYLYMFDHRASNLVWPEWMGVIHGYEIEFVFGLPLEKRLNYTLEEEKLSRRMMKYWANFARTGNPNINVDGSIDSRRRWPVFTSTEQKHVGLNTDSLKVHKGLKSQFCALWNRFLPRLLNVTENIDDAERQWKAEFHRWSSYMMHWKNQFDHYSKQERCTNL
Assay: Inhibition of electric eel AChE using acetylthiocholine iodide as substrate pretreated for 5 mins followed by substrate addition and measured after 2 mins by Ellman's method

- smiles-record: "CN(C)C(=O)Oc1ccccc1-c1nc2ccccc2s1"
  scale-unit: "µM"
  IC50: 20.9

---

Biological target: 5-hydroxytryptamine receptor 1A (Homo sapiens)
Sequence (P08908 whole entry): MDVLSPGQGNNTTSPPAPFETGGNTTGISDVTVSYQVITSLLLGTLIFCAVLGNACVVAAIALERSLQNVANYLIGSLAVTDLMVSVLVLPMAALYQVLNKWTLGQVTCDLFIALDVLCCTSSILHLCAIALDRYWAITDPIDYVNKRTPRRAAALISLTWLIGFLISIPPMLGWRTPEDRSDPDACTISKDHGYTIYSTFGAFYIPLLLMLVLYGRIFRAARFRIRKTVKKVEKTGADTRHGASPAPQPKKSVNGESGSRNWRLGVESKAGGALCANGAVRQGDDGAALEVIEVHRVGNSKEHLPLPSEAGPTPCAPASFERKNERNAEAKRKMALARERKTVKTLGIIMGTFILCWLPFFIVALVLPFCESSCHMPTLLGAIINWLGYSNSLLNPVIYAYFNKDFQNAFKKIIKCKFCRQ
Assay: Agonist activity at human 5H1A receptor expressed in HEK293 cells incubated for 60 mins by Eu-cAMP tracer based LANCE ultra cAMP assay

- smiles-record: "N#Cc1ccc2[nH]cc(CCCCN3CCN(c4c5c(nc6ccccc46)CCC5)CC3)c2c1"
  system: "5-hydroxytryptamine receptor 1A (Homo sapiens)"
  EC50 (µM): 0.107
